tested on: Saccharomyces cerevisiae; test: protein stability index of tFT-peptide fusion (C-terminal peptide) (PSI (0-1 scale)); higher = more stable (slower turnover); conditions: genetic background: cdc53-1; temperature: 37 C;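 also: PSI is a weighted mean of sequencing reads over stability bins, variants kept only with over 10 reads, mCherry proximal and sfGFP distal, peptide attached via GGGS linker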
Measured metric: protein stability index
Number, no unit, nothing else.

Sequence string: FASALAPLSAVA
protein stability index: 0.494

Sequence string: YFFFYFFLLFHL
protein stability index: 0.272

get_value(item= LCWASLLIVYLP , readout=protein stability index) returns 0.461

// protein stability index value for VLISLVLLFRCW : 0.244

Per the record, VCLFWLFLWRIL has protein stability index of 0.167

For PPPPPPLPSPSS the sequence record lists protein stability index as 0.742

Lab book: protein stability index of CFRRPLLRVVLT noted as 0.568

For reference, reported protein stability index for GGVVAACRGGIG stands at 0.386
